Each recorded value in this set is attributed to ChEMBL document CHEMBL1127200.

pIC50, UniProtKB Q72874, per-entry values.
The read-out pIC50 is expressed as -log10 of concentration in moles per litre.

Worked examples, 2 molecules total:
{"molecule": "CC1(C)S[C@H]([C@H](NC(=O)Cc2ccccc2)C(=O)NCc2ccccc2)N[C@H]1C(=O)NC[C@@H](O)[C@H](O)CNC(=O)[C@@H]1N[C@@H]([C@H](NC(=O)Cc2ccccc2)C(=O)NCc2ccccc2)SC1(C)C", "meas.value": 7.82}
{"molecule": "CC1(C)S[C@H]([C@H](NC(=O)Cc2ccccc2)C(=O)NCc2ccccc2)N[C@H]1C(=O)NC[C@H](O)[C@@H](O)CNC(=O)[C@@H]1N[C@@H]([C@H](NC(=O)Cc2ccccc2)C(=O)NCc2ccccc2)SC1(C)C", "meas.value": 7.44}

From here, focus on the item given below.
Exercise: What measured pIC50 goes with CCCNC(=O)[C@@H](NC(=O)Cc1ccccc1)[C@@H]1N[C@@H](C(=O)NCC(CO)NC(=O)[C@@H]2N[C@@H]([C@H](NC(=O)Cc3ccccc3)C(=O)NCC)SC2(C)C)C(C)(C)S1 (stereo partly drawn) ?
Key: 7.60
